assay-remarks: chemical genetic growth profiling, strain panel (AID 1159580);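 note: tested at 20 µM; growth read once vehicle control cultures reached saturation at 30 °C; 1 = growth at the plate median or of vehicle wells; lower values mean less growth of the strain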
condition-notes: S. cerevisiae deletion strains, growth OD, locus YAR019C, strain CDC15
Screen size: about 5,500 compounds; about 2,000 (36%) were called active. Not shown: some 18% with an inconclusive outcome. Cut-off read from the data, not from the text of the source: active = normalized growth mostly below about 0.91 (no sharp cut-off); inconclusive = no clear call, values can overlap the other calls; inactive = mostly above about 0.92. The list shows a part of the results.
Use one of these outcomes when replying: class 1 for active, class 0 for inactive

Query block: Outcome? `Cc1cc(/C(N)=N\OC(=O)C(C)(C)C)cc(/C(N)=N\OC(=O)C(C)(C)C)c1`
Result block: class 0

Query block: Now try `NC(=S)N/N=C1/CCCc2ccccc21` .
Result block: class 0

Query block: Item: `O=S(=O)(Oc1ccc(-c2csnn2)cc1)c1ccccc1Cl`
Result block: class 0

Query block: Follow-up entry: `CC(=O)c1ccc(Cl)c(N=Cc2cc(Br)cc(Br)c2O)c1`
Result block: class 1

Query block: And what about the molecule `COc1c(Br)csc1C(=O)O/N=C(/N)c1cc(C(F)(F)F)cc(C(F)(F)F)c1` ?
Result block: class 0
